Recorded values, source paper PMC8803428.

Test: Pharmacokinetics of ginsenosides in plasma after a single oral dose of RG or BRG capsules in healthy Korean men (LC-MS/MS)
Format: in vivo, human
Conditions: male, human, plasma, oral, 5 g, range over RG and BRG groups; read-out: t1/2
measured metric: half-life

Which half-life value belongs to CC(C)=CCC[C@](C)(O[C@@H]1O[C@H](CO[C@@H]2O[C@H](CO)[C@@H](O)[C@H](O)[C@H]2O)[C@@H](O)[C@H](O)[C@H]1O)[C@H]1CC[C@]2(C)[C@@H]1[C@H](O)C[C@@H]1[C@@]3(C)CC[C@H](O[C@@H]4O[C@H](CO)[C@@H](O)[C@H](O)[C@H]4O[C@@H]4O[C@H](CO)[C@@H](O)[C@H](O)[C@H]4O)C(C)(C)[C@@H]3CC[C@]12C [Rb1, ginsenoside Rb1] ?
38 to 46 h
